Reference source for all entries: patent US20250213550A1

test method notes: Phase 1 single- and multiple-ascending dose study: plasma PK of Compound A after oral Compound 1
Type: in vivo, human
condition context: human, plasma, oral, 75 mg, Cohort 5, 75 mg Cpd 1 QD fasted, Day 10, median; read-out: t1/2 (converted)
quantity kind: half-life (h)
Give the value, in units of h, as a plain number.

GET /values?readout=half-life&item= `Cn1ccc2c([C@H](Nc3cc(Cl)c4ncc(C#N)c(NCC(C)(C)C)c4c3)c3cn(C45CC(C4)C5)nn3)cccc2c1=O`
21.8

----------
test method notes: Phase 1 single- and multiple-ascending dose study: plasma PK of Compound A after oral Compound 1
Format: in vivo, human
condition context: human, plasma, oral, 900 mg, Cohort 7, 900 mg Cpd 1 QD fasted, Day 10, median; read-out: t1/2 (converted)
quantity kind: half-life (h)
Report only the number, with the unit h understood.

What value of half-life has been recorded for this entry: `Cn1ccc2c([C@H](Nc3cc(Cl)c4ncc(C#N)c(NCC(C)(C)C)c4c3)c3cn(C45CC(C4)C5)nn3)cccc2c1=O`
28.5

----------
test method notes: Phase 1 single- and multiple-ascending dose study: plasma PK of Compound A after oral Compound 1
Type: in vivo, human
condition context: human, plasma, oral; Cohort 5, 75 mg Cpd 1 QD fasted, Day 10, mean
quantity kind: AUC (ng·h/mL)
Number in ng·h/mL, nothing else.

Find the recorded AUC belonging to Cn1ccc2c([C@H](Nc3cc(Cl)c4ncc(C#N)c(NCC(C)(C)C)c4c3)c3cn(C45CC(C4)C5)nn3)cccc2c1=O [Compound A] and report it.
10500

----------
test method notes: Food effect on Compound A plasma PK after single dose Compound 1 600 mg
Format: in vivo, human
condition context: both sexes, human, plasma, oral, 600 mg, Compound 1 600 mg single dose, fasting; read-out: median Tmax
quantity kind: Tmax

Requested read-out: Tmax. Entry: `Cn1ccc2c([C@H](Nc3cc(Cl)c4ncc(C#N)c(NCC(C)(C)C)c4c3)c3cn(C45CC(C4)C5)nn3)cccc2c1=O`
4 h
